- Tested on: ML-1 human myelocytic leukemia line
- assayProtocol: Cell viability in ML-1 cells, MTT assay
- Type: cell-based
- measurementParameters: ML1, 3 days and 7 days of exposure, 0.1 to 100 μM, read-out: IC50, toxicity to ML-1 cells (MTT)
pIC50: −log10 of the molar value.
Please respond with reported pIC50 for every item in the list.

I would be grateful if you could share the reported pIC50 for `CC(/C=C/C(=O)NO)=C\[C@@H](C)C(=O)c1ccc(N(C)C)cc1` .
> 5.00

I would be grateful if you could share the reported pIC50 for `Nc1ccccc1NC(=O)c1ccc(CNC(=O)OCc2cccnc2)cc1` .
> 5.00
